Each entry below lists one item and its recorded MIC value.
# Test system: Mycobacterium tuberculosis
# TEST PROTOCOL: Antimycobacterial activity against Mycobacterium tuberculosis H37Rv after up to 28 days
# Type: functional
# CONDITION CONTEXT: 672 h
The reply should be a number in µg/mL, with the unit left off.

These recorded examples may help you get a feel for the data.
> print(dat)
                           smiles.structure  meas.value
1            Cc1ccc(-c2nnc(-c3cccnc3)o2)cc1         500
2  Cc1ccc(-c2nnc(-c3cccnc3)n2Nc2nc3ccc(C)cc3s2)cc1          50
3  Cc1ccc(-c2nnc(-c3cccnc3)n2Nc2nc3ccc([N+](=O)[O-])cc3s2)cc1         200
4  COc1ccc2nc(Nn3c(-c4ccc(C)cc4)nnc3-c3cccnc3)sc2c1        62.5
5  Cc1ccc(-c2nnc(-c3cccnc3)n2Nc2nc3c(Cl)cccc3s2)cc1          25

# next molecule below
State the recorded MIC for this entry: `Cc1cccc2sc(NN)nc12`
500
